assay: NCI Yeast Anticancer Drug Screen. Data for the mec2-1 strain (AID 157); conditions: S. cerevisiae mec2-1 strain, at 50.0 µM, stronger effect = higher value
Compounds without any hit were thinned out: in the full panel of roughly 79,000, 15% have a hit.
experimental endpoint: growth inhibition (%)
Answers are plain numbers, in %.

1. Cc1ccccc1OCC1COCN(Cc2ccccc2)CO1 (stereo not drawn)
21.2

Please state growth inhibition for every compound in the list that follows.
1. Cc1ncc([N+](=O)[O-])n1CCN(C)CCCCn1ccnc1[N+](=O)[O-]
2. COC1(OC)C2(Cl)C(Cl)=C(Cl)C1(Cl)C1C=CC=CC12 (stereo not drawn)

Response given:
-1.2
-14.2

Please state growth inhibition for every compound in the list that follows.
1. COc1ccc(C(O)c2ncccc2C)cc1OC (stereo not drawn)
2. Cc1cc[n+](CC(=O)CC(O)(C(F)(F)F)C(F)(F)F)cc1
3. CC(C)(O)C(F)(F)F
4. COc1ccc2c3c(c4ccccc4c2c1)C(=O)OC3=O
5. CC(=O)c1cccc(NC(=O)N2CCN(c3ccccc3)CC2)c1

Response given:
1. 31.3
2. 5.7
3. -5.85
4. 11.2
5. 34

Please state growth inhibition for every compound in the list that follows.
1. O=[N+]([O-])c1cccnc1Sc1ccccc1C1=NCCCN1
2. CCN(CC)CCN(CCN(CC)CC)c1ccc2ccccc2c1
3. O=c1[nH]nc(S(=O)(=O)N2CCCC2)c(=O)[nH]1
4. CC(=O)OCC1OC(OC(C)=O)C(Nc2ncnc3nc[nH]c23)C(OC(C)=O)C1OC(C)=O (stereo not drawn)
5. COC(=O)C1=C(C(=O)OC)C2(C(=O)OC)OC1(OC)C(C1(C(=O)OC)C(C(=O)OC)=C1C(=O)OC)=C2C(=O)OC (stereo not drawn)
6. CC1(C)OC(C(CCl)OS(C)(=O)=O)C(C(CCl)OS(C)(=O)=O)O1 (stereo not drawn)

Response given:
[-12.3, -12.8, -9, 23.9, 14.2, -6.1]

---

Experiment: NCI Yeast Anticancer Drug Screen. Data for the mlh1 rad18 strain (AID 175)
Conditions: S. cerevisiae mlh1 rad18 strain growth inhibition; at 50.0 µM; stronger effect = higher value
Experimental: Growth inhibition of yeast strains with defined genetic alterations is measured as a screen for potential anti-cancer activity. Selected strains with alterations in DNA damage repair or cell cycle control were exposed to compounds and growth inhibition was measured relative to vehicle treated controls. The strain used in this assay is mlh1 rad18
Compounds without any hit were thinned out: in the full panel of roughly 79,000, 15% have a hit.
I'd be grateful if you could share measured growth inhibition for these entries.
Answers are plain numbers, in %.

1) CN1NC(c2ccc(Cl)cc2)=C(C#N)C(=O)CC1c1ccccc1 (stereo not drawn)
2.35
2) CC1(C)C2C=CC1(C)C1(CC2)OCCO1 (stereo not drawn)
-115

Shift focus to the following entry.
Challenge: Given the molecule CCCCCCCCCCCCCCCCN (tested in a mixture with another compound) , what is its reported growth inhibition?
Response given: 17.4

---

I'd be grateful if you could share measured growth inhibition for these entries.
test: NCI Yeast Anticancer Drug Screen. Data for the rad50 strain (AID 155);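 further: 0% = growth of vehicle-only cultures of the same strain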; conditions: S. cerevisiae rad50 strain growth inhibition; at 50.0 µM; stronger effect = higher value
This is part of a sample that, as a whole, favours compounds with a hit. Of some 79,000 tested, about 15% had one in any assay.
Answers are plain numbers, in %.

Please state growth inhibition for every compound in the list that follows.
1. COc1ccc(/C=C(/C#N)C(N)=O)c(OC)c1
2. C=C(C)Cc1cc(C(CC)C(CC)c2ccc(O)c(CC(=C)C)c2)ccc1O (centres undefined)
3. Cc1cccc2c1C(=O)OC2(c1cccc2ccccc12)c1cccc2ccccc12
4. OCC1OC(n2cnc3c([Se]Cc4ccccn4)ncnc32)C(O)C1O (centres undefined)
5. CCOC(=O)C1Oc2ccccc2OC1C (centres undefined)

Response given:
1.85
18.6
-16.4
40
24.5

Please state growth inhibition for every compound in the list that follows.
1. COC(=O)C1CCC(=O)N1C(c1ccc(OC)cc1)c1ccc2c(c1)OCO2 (centres undefined)
2. CC(=Nc1ccc(Cl)c(Cl)c1)c1ccncc1
3. CC(=O)NCS(=O)(=O)O
4. CN(C)c1ccc(/C=C/c2ccc(/C=C/c3ccc(N(C)C)cc3)cc2)cc1

Response given:
1: -0.1; 2: -31.9; 3: -25.3; 4: -15.1
